# System: LOC_OS01G39600-cb002;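 note: purified Escherichia coli-expressed rice kinase domain construct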
# protocol notes: thermal shift delta Tm vs DMSO control; higher = stronger stabilization (binding)
# assay context: 12.5 µM; protein concentration 2 µM
Below, each entry is listed alongside its reported thermal shift delta Tm.
The reply should be a number in °C, with the unit left off.

GET thermal shift delta Tm where system = LOC_OS01G39600-cb002 and item = `Cc1cc(Nc2ncnc3ccc(-c4ccc(CNCCS(C)(=O)=O)o4)cc23)ccc1Oc1ccn2ncnc2c1`;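 note: purified Escherichia coli-expressed rice kinase domain construct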
3.89

Tell me its thermal shift delta Tm on LOC_OS01G39600-cb002: `COc1cccc2cc(-c3nc([C@H]4CC[C@H](C(=O)O)CC4)n4ncnc(N)c34)[nH]c12`
0.94

Provide measured thermal shift delta Tm on LOC_OS01G39600-cb002 for `COc1ncc(-c2ccc3nccc(-c4ccnnc4)c3c2)cc1NS(=O)(=O)c1ccc(F)cc1F` please.
3.65

# lookup: LOC_OS01G39600-cb002 thermal shift delta Tm, key = `Cc1ccc(C(=O)Nc2ccc(Oc3cc4cnn(C)c4cc3-c3cn[nH]c3)c(F)c2)c(=O)n1-c1ccc(F)cc1`
0.72

Quote LOC_OS01G39600-cb002 thermal shift delta Tm for entry `N#CC(=C(/N)Sc1ccccc1N)/C(C#N)=C(\N)Sc1ccccc1N` .
1.48

Answer with thermal shift delta Tm of `FC(F)(F)c1ccc(Nc2nc3ccc(Oc4ccnc(-c5ncc(C(F)(F)F)[nH]5)c4)cc3[nH]2)cc1` measured for LOC_OS01G39600-cb002.
6.13

Lab note: record thermal shift delta Tm of `CC1(C)OCCn2c1nc1c(N3CCOCC3)nc(-c3cnc(N)nc3)nc12` tested on LOC_OS01G39600-cb002.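 Note: purified Escherichia coli-expressed rice kinase domain construct.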
0.85

Tell me its thermal shift delta Tm on LOC_OS01G39600-cb002: `Cc1ccc(F)c(NC(=O)Nc2ccc(-c3cccc4[nH]nc(N)c34)cc2)c1`
2.02

For LOC_OS01G39600-cb002, give thermal shift delta Tm of the listed compound: `CC(C)(O)CNc1ncc(-c2ccnc(Nc3ccnc(Cl)c3)n2)c(CC2CC2)n1`
-0.42

Look up LOC_OS01G39600-cb002 data: thermal shift delta Tm of `CCc1cc(Nc2nccc(-c3c(-c4ccc(OC)c(C(=O)Nc5c(F)cccc5F)c4)nc4ccccn34)n2)c(OC)cc1N1CCC(N2CCN(S(C)(=O)=O)CC2)CC1` , then report it.
1.04

Give LOC_OS01G39600-cb002 thermal shift delta Tm for the following compound: `C[C@@H]1CN(CC(=O)Nc2ccc3c(c2)Cc2cccc(-c4cc(=O)cc(N5CCOCC5)o4)c2S3)C[C@H](C)O1`
-0.34

GET thermal shift delta Tm where system = LOC_OS01G39600-cb002 and item = `CCn1c(-c2nonc2N)nc2c(C#CC(C)(C)O)ncc(OC[C@H]3CCCNC3)c21`;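 note: purified Escherichia coli-expressed rice kinase domain construct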
0.32

Provide measured thermal shift delta Tm on LOC_OS01G39600-cb002 for `Cc1nc(-c2cn3c(n2)-c2ccc(-c4cnn(C(C)(C)C(N)=O)c4)cc2OCC3)n(C(C)C)n1` please.
-0.05

Send back LOC_OS01G39600-cb002 thermal shift delta Tm of `COc1cc2ncnc(Nc3cccc(Cl)c3)c2cc1OC` only.
1.07

Tell me its thermal shift delta Tm on LOC_OS01G39600-cb002: `CNC(=O)c1cccc(-c2ccc3c(N4CCOC[C@@H]4C)nc(N4CCOC[C@@H]4C)nc3n2)c1`
-0.58

Answer with thermal shift delta Tm of `O=C(Nc1c[nH]nc1-c1nc2ccc(CN3CCOCC3)cc2[nH]1)NC1CC1` measured for LOC_OS01G39600-cb002.
6.02
